- Tested on: Wolbachia pipientis
- PROTOCOL_SUMMARY: Anti-Wolbachia Cell-Based Screen
- Type: functional
- Set-up: scale not given: in the data most compounds retested in dose-response had high values
- TEST_SETTINGS: 5 µM
In all, about 48,000 compounds went through this assay and about 13,000 (27%) showed an effect of 50% or more. Some of the results follow.
The entries below come with measured Percent Effect values attached.
Number in %, nothing else.

{"columns": ["COMPOUND", "Percent Effect [%]"],
 "data": [
  ["CCNC(=O)[C@@H]1C[C@@H](N)CN1Cc1ccc(Sc2ccc(C)cc2)o1", 5.501],
  ["CN(C)CCNCC1COCc2c(-c3ccnn3C)nnn2C1 (stereo not drawn)", 97.42]
]}

Below: the item to evaluate.
// query Percent Effect value for entry Fc1cccc(-c2nnn3c2COCC(CNCc2nccs2)C3)c1.O=C(O)C(F)(F)F (stereo not drawn)
-16.94
